Test system: Human immunodeficiency virus
Assay notes: Inhibition of HIV reverse transcriptase activity at 10 ug/ml incubated at 37 degC for 1 hr by ELISA RT assay
Assay endpoint: inhibition (%)
Give your result in % as a bare value.

Ask: # inhibition lookup, item CC1=CSC2=NC(/C=C/c3ccc(F)cc3)=C(C(=O)/C=C/c3ccc(F)cc3)C(c3ccccc3)N12 (stereo not drawn)
Reply: 30

Ask: Param item: CC1=CSC2=NC(/C=C/c3ccccc3Cl)=C(C(=O)/C=C/c3ccccc3Cl)C(c3ccccc3)N12 (stereo not drawn)
Reply: 38.9

Ask: Param item: CC1=CSC2=NC(/C=C/c3ccc(Br)cc3)=C(C(=O)/C=C/c3ccc(Br)cc3)C(c3ccc(Cl)cc3)N12 (stereo not drawn)
Reply: 17.8

Recorded values, source ChEMBL document CHEMBL2062476.
